Origin of measurements: PubChem BioAssay (NCI)

# growth inhibition annotations
# test: NCI Yeast Anticancer Drug Screen. Data for the mec2-1 strain (AID 157)
# applied-conditions: S. cerevisiae mec2-1 strain, at 5.0 µM (retest, dose inferred, filed as 0.5), stronger effect = higher value
The panel holds about 79,000 compounds, 15% with a hit somewhere; the sample as a whole holds those more often.
Note: unit % is implicit; provide only the numeric part.

1) CCc1cc2c([nH]c3ccccc32)c(C)c1CCN(C)C | 4
2) CC(=O)OC1CCC23COC(CC(C)C2C)C3(Br)C1 (stereo unspecified) | 13

Note down growth inhibition recorded for COC(=O)C12CCC(=O)C(C)=C1CCC(OC)(OC)C2 (stereo unspecified)
-10

Note down growth inhibition recorded for S=C(NCCNC(=S)[S][Sn]([c]1ccccc1)([c]1ccccc1)[c]1ccccc1)[S][Sn]([c]1ccccc1)([c]1ccccc1)[c]1ccccc1
98

Note down growth inhibition recorded for O=C(/C=C/C(=O)OCCCl)OCCCl
-24

Note down growth inhibition recorded for CN(C)CC/C(=N\Nc1ccc(Cl)cc1)c1ccccc1
100

Note down growth inhibition recorded for O=C1C(c2ccccc2)=[N+]([O-])c2ccccc21
1

Note down growth inhibition recorded for O=C(NC(=S)Nc1ncc([N+](=O)[O-])s1)c1ccccc1C(=O)NC(=S)Nc1ncc([N+](=O)[O-])s1
9

Note down growth inhibition recorded for CCOC(=O)c1cnc(SCc2ccc(Cl)cc2Cl)nc1Cl
0

Note down growth inhibition recorded for CCCCCCCN=C(N)c1ccc(C(=O)OCc2ccccc2)cc1
-12

----------
# test: NCI Yeast Anticancer Drug Screen. Data for the cln2 rad14 strain (AID 165);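 also: 0% = growth equal to vehicle treated cultures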
# applied-conditions: S. cerevisiae cln2 rad14 strain, at 50.0 µM (retest, dose inferred, filed as 5.0), stronger effect = higher value
About 79,000 compounds went through this panel and 15% of them were active in at least one assay; those are over-represented in the sample as a whole.
measurement-type: growth inhibition (%)
Note: unit % is implicit; provide only the numeric part.

1. CCCCCCCC/C=C1\CCC(CN(C)C)C1=O (configuration not stated) | 95
2. Cc1[nH]c2ccccc2c1C(c1ccccc1)c1c(C)[nH]c2ccccc12 | 97
3. O=C(Nc1ccc(S(=O)(=O)NC2CCCCC2)cc1)OCc1ccccc1 | -10
4. CC1=C(C(=O)Nc2ccccc2C)C(c2ccc(Cl)c(Cl)c2)C(C(=O)Nc2ccccc2C)=C(C)N1 | 8
5. NC(=S)N/N=C1/C(=O)c2cccc3cccc1c23 | 65

Note down growth inhibition recorded for O=C(O/N=C1/CCC/C1=C\c1ccccc1)c1ccccc1
98

Note down growth inhibition recorded for Cn1c(N)c(NC(=O)CCl)c(=O)n(C)c1=O
2

Note down growth inhibition recorded for CN(C)c1ccc(C2ON=C(c3ccccc3)N2C23CC4CC(CC(C4)C2)C3)cc1 (configuration not stated)
2

Note down growth inhibition recorded for O=C(N/C(=C\c1ccccc1Cl)c1nc2ccccc2s1)c1ccccc1
99

Note down growth inhibition recorded for CC(=O)n1nc2c(c1CC(C)C)C(=O)C(Nc1ccccc1)=CC2=O
99

Note down growth inhibition recorded for CN(C)CCC(/C=C/c1ccccc1)=N\Nc1ccc(Cl)c(Cl)c1
95

Note down growth inhibition recorded for COc1ccc(N=N/N=c2\sc3cc(OC)ccc3n2C)cc1
63

Note down growth inhibition recorded for COc1ccccc1/C=C1\S/C(=N/Nc2nc(C)c(C(C)=O)s2)NC1=O
34

Note down growth inhibition recorded for CCCCCCCCCCCCCC(=O)OCC[N+](C)(C)C
98

Note down growth inhibition recorded for C=C1C(=O)O[C@H]2[C@H](OC(C)=O)[C@@H](C)CCC/C(C)=C/CC[C@@]3(C)O[C@@H]3C[C@@H]12
95

Note down growth inhibition recorded for COC(=O)c1ncc(Cl)cc1Cl
-7

Note down growth inhibition recorded for COc1cccc2c1C(=O)c1c(O)c(COC3CC(N)C(O)C(C)O3)cc(O)c1C2=O (configuration not stated)
42

Note down growth inhibition recorded for CCS(=O)(=O)/C=C(\C#Cc1ccccc1)c1ccccc1
81

Note down growth inhibition recorded for C[CH2][Sn]([CH2]C)([O]C(=O)c1c(F)cccc1F)[O][Sn]([CH2]C)([CH2]C)[O]C(=O)c1c(F)cccc1F
84

Note down growth inhibition recorded for CSc1ccc(/C=N/NC(N)=S)cc1
-19

Note down growth inhibition recorded for O=C1NC(c2cccc3ccccc23)Nc2ccc(Cl)cc21 (configuration not stated)
85

Note down growth inhibition recorded for NC1CCCCC1N.O=S(=O)([O-])CCCN1CCN(CCO)CC1.O=S(=O)([O-])CCCN1CCN(CCO)CC1.[Pt+4]
66
